Test system: Pseudomonas aeruginosa
Test: MIC against Gram-negative bacteria: Pseudomonas aeruginosa
Assay type: cell-based
Details: 96-well plate, 5×10^5 CFU/mL, 37° C., 10 h
Property Measured: MIC P. aeruginosa (µg/mL)
State just the number; it will be interpreted in µg/mL.

Endpoint output: MIC P. aeruginosa of PRT597 (CDCNRAGTQKPICDPDTGMCRCREGVSGQRCDRCARGHSQEFPTCLQ; listed as Homo sapiens) . Value?
50

Endpoint output: MIC P. aeruginosa of PRT689 (DNDECADEEPACEGGRCVNTVGSYHCTCEPPLVLDGSQRRCV; listed as Homo sapiens) . Value?
50

Endpoint output: MIC P. aeruginosa of PRT710 (DQDECAVYGTCSQTCRNTHGSYTCSCVEGYLMQPDNRSCK; listed as Homo sapiens) . Value?
50

Endpoint output: MIC P. aeruginosa of PRT729 (GSNACNQPTHPNGDCSHFCFPVPNFQRVCGCPYGMRLASNHLTCE; listed as Homo sapiens) . Value?
12.5

Endpoint output: MIC P. aeruginosa of PRT636 (DINECEHPGLCGPQGECLNTEGSFHCVCQQGFSISADGRTCE; listed as Homo sapiens) . Value?
50

Endpoint output: MIC P. aeruginosa of PRT735 (GEENCNVNNGGCAQKCQMVRGAVQCTCHTGYRLTEDGHTCQ; listed as Homo sapiens) . Value?
12.5

Endpoint output: MIC P. aeruginosa of PRT694 (DVDECRRVPPPCAPGRCENSPGSFRCVCGPGFRAGPRAAECL; listed as Homo sapiens) . Value?
50

// data source = patent US9833497B2
